Below, each entry is listed alongside its reported IC50.
Biological target: NEK2 kinase (Accession No. NP-002488) (Homo sapiens, UniProt P51955)
Construct: purchased ThermoFisher Scientific (Invitrogen)
Sequence (P51955 whole entry): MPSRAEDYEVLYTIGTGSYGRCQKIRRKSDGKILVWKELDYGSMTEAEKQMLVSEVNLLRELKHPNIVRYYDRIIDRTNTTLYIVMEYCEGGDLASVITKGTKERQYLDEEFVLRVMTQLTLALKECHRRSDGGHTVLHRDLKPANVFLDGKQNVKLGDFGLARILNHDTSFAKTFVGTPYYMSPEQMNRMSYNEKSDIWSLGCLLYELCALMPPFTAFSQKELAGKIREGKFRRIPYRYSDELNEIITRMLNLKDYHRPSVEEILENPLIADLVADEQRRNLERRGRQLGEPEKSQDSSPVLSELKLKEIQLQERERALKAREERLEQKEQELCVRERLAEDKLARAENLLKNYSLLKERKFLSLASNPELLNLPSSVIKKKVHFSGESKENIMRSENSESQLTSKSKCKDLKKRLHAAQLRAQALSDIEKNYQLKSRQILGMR
Experiment: HotSpot Kinase Assay, NEK2
Format: biochemical
Settings: HotSpot Kinase Assay; read-out: NEK2 IC50

Solved entries (count: 5):
COMPOUND: N#Cc1c(Nc2nc(Nc3ccc(N4CCNCC4)nc3)ncc2Cl)cccc1OCc1ccccc1F [Compound 8]
IC50: 0.005 to 0.015 µM

COMPOUND: N#Cc1c(Nc2nc(Nc3ccc(C(=O)N4CCNCC4)cc3)ncc2Cl)cccc1OCc1ccccc1F [Compound 6]
IC50: > 0.015 µM

COMPOUND: N#Cc1c(Nc2nc(Nc3ccc(N4CCNCC4)cc3)ncc2Cl)cccc1OCc1cccc(F)c1 [Compound 14]
IC50: > 0.015 µM

COMPOUND: COc1cc(Nc2ncc(Cl)c(Nc3cccc(OCc4ccccc4F)c3C#N)n2)ccc1N1CCNCC1 [Compound 9]
IC50: ≤ 0.005 µM

COMPOUND: COc1cc(N2CCNCC2)ccc1Nc1ncc(Cl)c(Nc2cccc(OCc3ccccc3F)c2C#N)n1 [Compound 7]
IC50: ≤ 0.005 µM

Query: Determine from records and report IC50 for N#Cc1c(Nc2nc(Nc3ccc(C4CCNCC4)cc3)ncc2Cl)cccc1OCc1ccccc1F [Compound 27]
Result: ≤ 0.005 µM
